Values from paper PMC8458281

# target: T1, CXCR4 D97E + V112A (human, UniProt P61073-1 1-352, D97E | V112A)
# T1 construct: human CXCR4, isoform 1 or b; also called D97E plus V112A; source: 293T cells, transiently transfected (pcDNA3.1 CXCR4-IRES-eGFP), on cells
# T1 sequence (P61073 whole entry D97E/V112A, canonical isoform): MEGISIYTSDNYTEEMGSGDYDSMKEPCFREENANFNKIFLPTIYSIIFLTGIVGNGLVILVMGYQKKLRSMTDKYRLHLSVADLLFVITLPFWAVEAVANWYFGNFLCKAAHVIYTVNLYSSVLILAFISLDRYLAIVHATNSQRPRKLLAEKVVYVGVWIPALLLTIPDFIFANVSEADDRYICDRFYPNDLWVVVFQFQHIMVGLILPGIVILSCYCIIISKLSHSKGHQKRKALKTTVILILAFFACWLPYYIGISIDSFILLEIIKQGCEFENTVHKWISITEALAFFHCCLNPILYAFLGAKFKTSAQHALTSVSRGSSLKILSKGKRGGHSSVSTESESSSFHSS
# assay-notes: flow cytometry on cells; 12G5 antibody competition on 293T cells transiently transfected with CXCR4 wt or mutants (IRES-eGFP vector), eGFP-positive cells gated; serially diluted peptide with a constant concentration of CXCR4 antibody clone 12G5, 2 h; bound antibody read; IC50 by nonlinear regression
# experimental-context: one partner purified
measure: IC50 (µM)
Number in µM, nothing else.

What measured IC50 goes with LVRYTKKVPQVSTPTL (source: synthetic peptide (Fmoc solid-phase synthesis, HPLC-purified)) [EPI-X4 (Alb408-423)] ?
18
